Target: GST-Bfl-1 (Homo sapiens, UniProt Q16548)
Construct: lacking their C-terminal transmembrane domains (about the last 20 amino acids) (“ΔTM”); made in house; host or cells: XL-1 Blue E. coli, pGEX 4T-1
Sequence (Q16548 1-155 limits assumed): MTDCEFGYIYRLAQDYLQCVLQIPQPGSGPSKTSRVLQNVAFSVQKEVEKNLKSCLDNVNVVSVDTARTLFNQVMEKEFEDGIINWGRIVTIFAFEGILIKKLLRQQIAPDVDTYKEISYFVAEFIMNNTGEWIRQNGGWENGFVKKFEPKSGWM
Test: Bfl-1/FITC-Bid BH3 competitive fluorescence polarization assay
Type: binding
Details: primary HTS hits, MLSCN library (PubChem SIDs), Table 5B
Protocol: A FPA was performed to determine the binding affinity of FITC-Bid BH3 peptide to Bcl-2 proteins. […] IC50 determinations were performed using GraphPad Prism software (GraphPad, Inc., San Diego, Calif.). […] Fluorescence polarization was measured after 10 min. Compounds that reduced the fluorescence polarization by 50% were considered hits.
Doc: threshold 80% (exclusive). Items with % Activity beneath it return met; others return not met.

- COc1ccc(OC)c(NC(=O)CCN2CCC(C)CC2)c1: met
- O=C(O)c1cccc(-n2cccc2/C=N/O)c1: met
- Cc1ccc(C)n1Cc1ccc(C(=O)O)cc1: met
- CCC(=O)Nc1cccc(NC(C)=O)c1: not met
- COc1ccc(NC(=O)C2CCN(c3nc(C)nc4c3CCC4)CC2)cc1: met
- COc1ccc(N2Cc3cccc(C(=O)O)c3C2=O)cc1: not met
- CCC1=NNc2cccc3c(OC)ccc1c23: not met
- CC(=N)/C(C#N)=C(/O)CSc1nnc(NC(C)C)s1: not met

Source listed as patent US20090118135A1.
